Below is a list of entries, each paired with its recorded TGI value.
Test system: KM12 colon
Assay Summary: NCI tumour cell line growth inhibition, 48 h

Here is how some compounds turned out for TGI.
{"Compound": "Cc1cnc(-c2ccc(-c3ccc(NC(=O)Nc4cccc(C(F)(F)F)c4)cc3F)c3c2C(=O)NC3)[nH]1", "Tested System": "KM12 colon", "TGI": "16.2 µM"}
{"Compound": "Cc1cc(S(=O)(=O)Nc2nnc3c(Cl)cc(C(F)(F)F)cn23)c(S)cc1Cl", "Tested System": "KM12 colon", "TGI": "> 100 µM"}
{"Compound": "O=C(CS(=O)c1nc2ccccc2nc1-c1ccccc1)Nc1ccc(Cl)cc1 (stereo not drawn)", "Tested System": "KM12 colon", "TGI": "55.2 µM"}

**Query** Need TGI of CC1OC(OC2C(O)C(OCCc3ccc(O)c(O)c3)OC(CO)C2OC(=O)/C=C/c2ccc(O)c(O)c2)C(O)C(O)C1O (stereo not drawn) , thanks.
**Result** > 100 µM

**Query** Need TGI of O=C(N/N=C\c1ccc(Cl)cc1)Nc1cccc2ccccc12 , thanks.
**Result** > 23 µM

**Query** Need TGI of Cc1cc2nc3c(C#N)c4c(c(Cl)n3c2cc1C)CCC4 , thanks.
**Result** > 100 µM

**Query** Need TGI of CC(C)NC(=O)OCc1c(COC(=O)NC(C)C)c(-c2cc[n+](COC(=O)Cc3ccccc3)cc2)n2c1CCC2 , thanks.
**Result** > 100 µM

**Query** Need TGI of COc1cc(C(=O)c2cnc(-c3ccc4cc[nH]c4c3)[nH]2)cc(OC)c1OC , thanks.
**Result** 2.16 µM

**Query** Need TGI of C/C1=C\CC[C@@]2(C)O[C@@H]2C[C@@H]2[C@H](C/C(C)=C/CC1)OC(=O)[C@]21CO1 , thanks.
**Result** > 100 µM

**Query** Need TGI of COC(=O)N1C2C(C[C@@]1(C)C(=O)OC)c1ccccc1N2S(=O)(=O)c1ccccc1 (stereo partly drawn) , thanks.
**Result** > 100 µM
